Please respond with reported IC50 for every item in the list.
# TESTED_ON: Histone deacetylase 3/Nuclear receptor corepressor 2 (HDAC3/NCoR2) (Homo sapiens, UniProt O15379)
# Sequence (O15379 whole entry): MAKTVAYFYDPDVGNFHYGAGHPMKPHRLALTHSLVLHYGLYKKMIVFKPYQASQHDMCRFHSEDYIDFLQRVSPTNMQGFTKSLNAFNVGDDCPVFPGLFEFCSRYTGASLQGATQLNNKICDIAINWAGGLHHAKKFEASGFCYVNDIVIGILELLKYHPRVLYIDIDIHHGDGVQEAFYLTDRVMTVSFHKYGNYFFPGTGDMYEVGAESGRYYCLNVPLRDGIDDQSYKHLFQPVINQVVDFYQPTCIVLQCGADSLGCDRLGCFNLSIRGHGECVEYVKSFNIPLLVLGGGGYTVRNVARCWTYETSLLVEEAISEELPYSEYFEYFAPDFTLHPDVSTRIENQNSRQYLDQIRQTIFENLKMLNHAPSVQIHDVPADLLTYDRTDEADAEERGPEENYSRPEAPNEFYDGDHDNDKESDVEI
# Sequence (Q9Y618 whole entry, further chain): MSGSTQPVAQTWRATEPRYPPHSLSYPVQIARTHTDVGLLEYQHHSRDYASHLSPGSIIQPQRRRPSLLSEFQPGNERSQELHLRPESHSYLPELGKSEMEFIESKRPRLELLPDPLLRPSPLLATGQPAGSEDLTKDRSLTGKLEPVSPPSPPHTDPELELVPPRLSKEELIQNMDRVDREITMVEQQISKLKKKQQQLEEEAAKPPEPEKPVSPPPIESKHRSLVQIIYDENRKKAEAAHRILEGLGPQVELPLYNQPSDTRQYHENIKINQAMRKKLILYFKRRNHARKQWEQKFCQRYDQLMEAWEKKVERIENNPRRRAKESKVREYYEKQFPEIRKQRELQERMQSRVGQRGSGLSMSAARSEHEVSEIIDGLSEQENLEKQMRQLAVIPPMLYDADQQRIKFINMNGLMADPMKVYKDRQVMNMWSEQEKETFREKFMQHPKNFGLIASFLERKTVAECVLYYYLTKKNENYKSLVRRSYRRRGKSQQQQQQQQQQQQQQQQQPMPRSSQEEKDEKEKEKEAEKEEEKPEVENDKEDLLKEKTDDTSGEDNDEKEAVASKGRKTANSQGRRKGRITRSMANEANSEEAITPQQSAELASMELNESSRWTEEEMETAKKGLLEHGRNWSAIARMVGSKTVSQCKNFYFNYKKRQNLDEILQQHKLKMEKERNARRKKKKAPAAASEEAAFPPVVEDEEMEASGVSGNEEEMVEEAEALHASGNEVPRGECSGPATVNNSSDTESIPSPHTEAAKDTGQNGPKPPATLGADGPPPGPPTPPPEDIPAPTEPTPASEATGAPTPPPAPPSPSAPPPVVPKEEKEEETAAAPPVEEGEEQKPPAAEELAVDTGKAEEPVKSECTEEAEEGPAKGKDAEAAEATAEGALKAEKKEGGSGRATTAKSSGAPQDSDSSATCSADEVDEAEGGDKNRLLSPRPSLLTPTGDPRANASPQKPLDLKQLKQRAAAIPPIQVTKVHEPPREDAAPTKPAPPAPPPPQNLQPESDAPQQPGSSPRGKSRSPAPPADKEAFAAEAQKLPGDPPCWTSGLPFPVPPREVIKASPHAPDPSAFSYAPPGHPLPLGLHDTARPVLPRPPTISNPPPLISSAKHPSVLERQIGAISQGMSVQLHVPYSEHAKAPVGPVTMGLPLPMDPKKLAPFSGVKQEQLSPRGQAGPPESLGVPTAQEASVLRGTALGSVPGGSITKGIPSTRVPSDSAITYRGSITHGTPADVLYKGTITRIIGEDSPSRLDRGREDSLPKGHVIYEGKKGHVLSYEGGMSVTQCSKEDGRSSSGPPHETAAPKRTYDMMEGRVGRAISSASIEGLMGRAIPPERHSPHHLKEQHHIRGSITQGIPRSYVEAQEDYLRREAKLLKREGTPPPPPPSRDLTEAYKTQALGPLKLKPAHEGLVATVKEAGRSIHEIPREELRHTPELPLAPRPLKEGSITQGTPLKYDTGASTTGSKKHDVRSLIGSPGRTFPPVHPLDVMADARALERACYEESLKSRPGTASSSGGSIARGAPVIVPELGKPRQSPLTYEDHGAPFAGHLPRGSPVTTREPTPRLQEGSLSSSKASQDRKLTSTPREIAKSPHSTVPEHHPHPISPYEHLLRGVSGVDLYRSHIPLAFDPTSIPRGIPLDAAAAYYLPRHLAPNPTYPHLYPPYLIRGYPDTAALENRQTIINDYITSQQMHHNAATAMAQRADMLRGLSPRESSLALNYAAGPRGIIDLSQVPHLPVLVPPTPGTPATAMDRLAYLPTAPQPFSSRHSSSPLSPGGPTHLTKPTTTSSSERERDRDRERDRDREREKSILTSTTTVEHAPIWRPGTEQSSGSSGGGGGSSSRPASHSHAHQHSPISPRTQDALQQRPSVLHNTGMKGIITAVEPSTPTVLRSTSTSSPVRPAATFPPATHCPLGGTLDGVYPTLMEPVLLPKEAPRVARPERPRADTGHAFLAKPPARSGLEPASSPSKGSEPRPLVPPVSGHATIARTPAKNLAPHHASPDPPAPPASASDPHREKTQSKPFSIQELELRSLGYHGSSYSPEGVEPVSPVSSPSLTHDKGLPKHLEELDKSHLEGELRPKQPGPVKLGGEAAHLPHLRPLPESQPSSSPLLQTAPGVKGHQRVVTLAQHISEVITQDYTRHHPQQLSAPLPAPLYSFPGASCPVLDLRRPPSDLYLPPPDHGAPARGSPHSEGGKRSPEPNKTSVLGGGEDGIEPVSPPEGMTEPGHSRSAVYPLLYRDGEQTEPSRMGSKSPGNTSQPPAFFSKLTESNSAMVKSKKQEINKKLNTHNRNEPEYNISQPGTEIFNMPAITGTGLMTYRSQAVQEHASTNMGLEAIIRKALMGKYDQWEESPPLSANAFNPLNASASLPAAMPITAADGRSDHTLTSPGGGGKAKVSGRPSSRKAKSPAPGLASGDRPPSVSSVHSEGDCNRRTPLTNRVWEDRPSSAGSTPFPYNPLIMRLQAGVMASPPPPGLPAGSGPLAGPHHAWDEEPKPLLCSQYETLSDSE
# TEST_NAME: Inhibition of human recombinant HDAC3/NCoR2 using Ac-Lys(Ac)-7-amino-4-methylcoumarin as substrate after 30 mins by trypsin-coupled fluorogenic assay
One number for each entry, in nM.

Example cases with answers are listed next.
CCC(=O)CCCCC[C@@H]1NC(=O)[C@H](CCCNC(=N)N)NC(=O)CCN(CC=C(C)C)C(=O)CN(CCc2c[nH]c3ccccc23)C1=O | 270
CCC(=O)CCCCC[C@@H]1NC(=O)[C@H](CCCCNC(C)=O)NC(=O)CCN(CC(C)C)C(=O)CN(CCc2c[nH]c3ccccc23)C1=O | 320
CCC(=O)CCCCC[C@@H]1NC(=O)[C@H](CCCNC(=N)N)NC(=O)CCN(CC(C)C)C(=O)CN(CCc2c[nH]c3ccccc23)C1=O | 100

Next up:
Given CCC(=O)CCCCC[C@@H]1NC(=O)[C@H](C)N(C)C(=O)CCN(CC(C)C)C(=O)CN(CCc2c[nH]c3ccccc23)C1=O , state its recorded IC50.
650

###

# TESTED_ON: Histone deacetylase
# TEST_NAME: Inhibition of HDAC in human HeLa cell extracts by fluorimetric assay
# Assay type: protein assay
Please respond with reported IC50 for every item in the list.

Example cases with answers are listed next.
CCC(=O)CCCCC[C@@H]1NC(=O)[C@H](C)N(C)C(=O)CCN(CC(C)C)C(=O)CN(Cc2ccc(C)cc2)C1=O | > 100 µM
CCC(=O)CCCCC[C@@H]1NC(=O)[C@H](C)N(C)C(=O)CCN(CC(C)C)C(=O)CN(Cc2ccccc2)C1=O | > 100 µM
CCC(=O)CCCCCN1CC(=O)N(Cc2cccc3ccccc23)CC(=O)N(CC(C)C)CCC(=O)N[C@@H](C)C1=O | > 10 µM
CCC(=O)CCCCC[C@@H]1NC(=O)[C@H](C)N(C)C(=O)C[C@H](CC(C)C)NC(=O)CN(CCc2c[nH]c3ccccc23)C1=O | > 10 µM
CCC(=O)CCCCC[C@@H]1NC(=O)[C@H](C)N(C)C(=O)CCN(CC(C)C)C(=O)CN(CCc2ccccc2)C1=O | > 100 µM

Please look at the items below and tell me IC50 for each one, in order.
1. CCC(=O)CCCCC[C@@H]1NC(=O)[C@H](C)N(C)C(=O)CCN(CC(C)C)C(=O)CN(CCc2c[nH]c3ccccc23)C1=O
2. CCC(=O)CCCCC[C@@H]1NC(=O)[C@H](CCCNC(=N)N)NC(=O)CCN(CC(C)C)C(=O)CN(CCc2c[nH]c3ccccc23)C1=O

1 µM
0.06 µM

###

# Tested on: MCF7
# TEST_NAME: Cytotoxicity against human MCF7 cells after 72 hrs by XTT assay
# Format: functional
# SETTINGS: MCF7, 72 h
METRIC: GI50

Example cases with answers are listed next.
CCC(=O)CCCCC[C@@H]1NC(=O)[C@H](C)N(C)C(=O)CCN(CC(C)C)C(=O)CN(CCc2c[nH]c3ccccc23)C1=O | > 50 µM
CCC(=O)CCCCC[C@@H]1NC(=O)[C@H]2CCCCN2C(=O)[C@H]([C@@H](C)CC)NC(=O)[C@H](Cc2cn(OC)c3ccccc23)NC1=O | 5 µM

Given CCC(=O)CCCCC[C@@H]1NC(=O)[C@H](CCCCNC(C)=O)NC(=O)CCN(CC(C)C)C(=O)CN(CCc2c[nH]c3ccccc23)C1=O , state its recorded GI50.
> 50 µM
